Where do the numbers come from? From patent US20260041095A1.

System: Byssochlamys nivea SUN10
PROPERTY: MIC

# MIC lookup, item CCCC(O)CC(=O)O[C@H]1[C@H](O[C@H]2[C@H](O)[C@@H](O)[C@H](OCC(O)CCCCCCCCCCCCC(O)C(=O)O)O[C@@H]2COC(C)=O)O[C@H](CO)[C@@H](O)[C@@H]1O (stereo partly shown)
≤ 31.2 µg/mL

What do we get for CCCCCCCC(=O)O[C@H]1[C@H](O[C@H]2[C@H](O)[C@@H](O)[C@H](OCC(O)CCCCCCCCCCCCC(O)C(=O)O)O[C@@H]2COC(C)=O)O[C@H](CO)[C@@H](O)[C@@H]1O (stereo partly shown) ?
≤ 31.2 µg/mL

What do we get for CCCCCC(O)CC(=O)O[C@H]1[C@H](O[C@H]2[C@H](O)[C@@H](O)[C@H](OCC(O)CCCCCCCCCCCCC(O)C(=O)O)O[C@@H]2COC(C)=O)O[C@H](CO)[C@@H](O)[C@@H]1O (stereo partly shown) ?
≤ 125 µg/mL

What do we get for O=C(O)OC[C@H]1O[C@@H](OCC(O)CCCCCCCCCCC/C=C(\O)C(=O)O)[C@H](O)[C@@H](O)[C@@H]1O[C@@H]1O[C@H](CO)[C@@H](O)[C@H](O)[C@H]1OC(=O)CC(O)CCO (stereo partly shown) ?
≤ 125 µg/mL
